Target: human V1a receptor (Homo sapiens, UniProt P37288)
Sequence (P37288 whole entry): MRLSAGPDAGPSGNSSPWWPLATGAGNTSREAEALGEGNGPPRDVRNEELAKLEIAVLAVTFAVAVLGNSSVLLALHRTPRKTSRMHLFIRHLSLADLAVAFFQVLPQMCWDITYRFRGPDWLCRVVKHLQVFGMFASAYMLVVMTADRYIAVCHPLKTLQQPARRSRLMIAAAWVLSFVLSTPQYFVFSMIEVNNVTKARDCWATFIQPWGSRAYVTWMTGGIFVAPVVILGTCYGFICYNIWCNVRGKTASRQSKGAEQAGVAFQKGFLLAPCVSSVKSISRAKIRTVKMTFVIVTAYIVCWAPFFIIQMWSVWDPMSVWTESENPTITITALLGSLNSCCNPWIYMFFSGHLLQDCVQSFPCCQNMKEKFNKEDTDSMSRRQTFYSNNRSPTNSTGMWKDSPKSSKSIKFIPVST
Test: Cellular in vitro assay for determining vasopressin receptor activity (V1a cell line, aequorin luminescence)
Conditions: CHO cell line transfected with human V1a receptor; antagonism of [Arg8]-vasopressin at EC50; Table 1A, compounds of the invention; read-out: IC50 hV1a
value.type: IC50 (nM)

- molecule: "NC(=O)c1nc(Cn2nc(-c3ccc(Cl)cc3)n(C[C@H](O)C(F)(F)F)c2=O)nn1-c1ncccc1Cl [Example 1]"
  value.units: "nM"
  quantitative.result: 1.02
- molecule: "NC(=O)c1nc(Cn2nc(-c3ccc(Cl)cc3)n(CC(=O)C(F)(F)F)c2=O)nn1-c1ncccc1Br [Example 15]"
  value.units: "nM"
  quantitative.result: 13.5
- molecule: "NC(=O)c1nc(Cn2nc(-c3ccc(Cl)cc3)n(C[C@H](O)C(F)(F)F)c2=O)nn1-c1cnccc1C(F)(F)F [Example 7]"
  value.units: "nM"
  quantitative.result: 2.5
- molecule: "NC(=O)c1nc(Cn2nc(-c3ccc(Cl)cc3)n(CC(=O)C(F)(F)F)c2=O)nn1-c1ncccc1Cl [Example 14]"
  value.units: "nM"
  quantitative.result: 5.2
- molecule: "NC(=O)c1nc(Cn2nc(-c3ccc(Cl)cc3)n(C[C@H](O)C(F)(F)F)c2=O)nn1-c1ncccc1Br [Example 4]"
  value.units: "nM"
  quantitative.result: 1.23

I = CCOC(=O)c1cccnc1-n1nc(Cn2nc(-c3ccc(Cl)cc3)n(C[C@H](O)C(F)(F)F)c2=O)nc1C(N)=O [Example 5]
II = NC(=O)c1nc(Cn2nc(-c3ccc(Cl)cc3)n(CC(=O)C(F)(F)F)c2=O)nn1-c1cnccc1Cl [Example 16]
III = NC(=O)c1nc(Cn2nc(-c3ccc(Cl)cc3)n(C[C@H](O)C(F)(F)F)c2=O)nn1-c1cnccc1Cl [Example 6]
IV = NC(=O)c1cccnc1-n1nc(Cn2nc(-c3ccc(Cl)cc3)n(C[C@H](O)C(F)(F)F)c2=O)nc1C(N)=O [Example 9]
**Query** Ascending by IC50, please: list the molecules accordingly. As an answer, provide the labels arranged in the order called for.
**Result** III, II, I, IV
(III: 0.57 nM, II: 1.4 nM, I: 14.5 nM, IV: 75 nM)

P = NC(=O)c1nc(Cn2nc(-c3ccc(Cl)cc3)n(C[C@H](O)C(F)(F)F)c2=O)nn1-c1ncccc1C(F)(F)F [Example 2]
Q = NC(=O)c1nc(Cn2nc(-c3ccc(Cl)cc3)n(C[C@@H](O)C(F)(F)F)c2=O)nn1-c1cnccc1Cl [Example 12]
**Query** For this pair, P and Q , which shows a numerically higher IC50? Lab log: write the label of the selected item as the result.
**Result** Q

I = NC(=O)c1nc(Cn2nc(-c3ccc(Cl)cc3)n(C[C@@H](O)C(F)(F)F)c2=O)nn1-c1ncccc1Cl [Example 10]
II = CCOC(=O)c1ccncc1-n1nc(Cn2nc(-c3ccc(Cl)cc3)n(C[C@H](O)C(F)(F)F)c2=O)nc1C(N)=O [Example 8]
III = NC(=O)c1nc(Cn2nc(-c3ccc(Cl)cc3)n(C[C@@H](O)C(F)(F)F)c2=O)nn1-c1ncccc1C(F)(F)F [Example 11]
IV = NC(=O)c1nc(Cn2nc(-c3ccc(Cl)cc3)n(C[C@H](O)C(F)(F)F)c2=O)nn1-c1ncccc1OC(F)(F)F [Example 3]
V = NC(=O)c1nc(Cn2nc(-c3ccc(Cl)cc3)n(C[C@@H](O)C(F)(F)F)c2=O)nn1-c1cnccc1C(F)(F)F [Example 13]
**Query** Ascending by IC50, please: list the molecules accordingly. As an answer, provide the labels arranged in the order called for.
**Result** V, III, I, IV, II
(V: 1.6 nM, III: 3.1 nM, I: 6.8 nM, IV: 16 nM, II: 25.5 nM)

Every entry's value here was drawn from patent US20190144423A1.
